Origin of the recorded values: PubChem BioAssay AID2060490

- Tested on: 885512-296-R-J2-PDC complex spheroid viability
- assay-summary: Anticancer human tumor 885512-296-R-J2-PDC patient-derived breast carcinoma cell line growth inhibition [GQUAD]
- condition-summary: curve of first compound; second compound 1 µM
quantity-name: pIC50
Please keep in mind that pIC50 is minus log10 of the molar concentration; only the number is needed.

Observe how each entry below is paired with its result.
1. CC1COCCN1c1cc(C2(S(C)(=N)=O)CC2)nc(-c2ccnc3[nH]ccc23)n1 (stereo not given) + CN(C)c1ccc(Nc2c3ccc(NC(=O)CCN4CCCC4)cc3nc3cc(NC(=O)CCN4CCCC4)ccc23)cc1    6.14
2. CC[C@@]1(O)C(=O)OCc2c1cc1n(c2=O)Cc2cc3c(CN(C)C)c(O)ccc3nc2-1 + CN(C)c1ccc(Nc2c3ccc(NC(=O)CCN4CCCC4)cc3nc3cc(NC(=O)CCN4CCCC4)ccc23)cc1    7.69
3. C#Cc1c(F)ccc2cc(O)cc(-c3ncc4c(N5CC6CCC(C5)N6)nc(OCC56CCCN5CC(F)C6)nc4c3F)c12 (stereo not given) + Cc1[nH]c2ccc(F)cc2c1-c1nc2c3cccnc3c3ncccc3c2[nH]1    6.41
4. O=C(NO)c1cnc(N2CCN(S(=O)(=O)c3ccc4ccccc4c3)CC2)nc1 + CN(C)c1ccc(Nc2c3ccc(NC(=O)CCN4CCCC4)cc3nc3cc(NC(=O)CCN4CCCC4)ccc23)cc1    6.83
5. COc1cccc2c1C(=O)c1c(O)c3c(c(O)c1C2=O)CC(O)(C(=O)CO)CC3OC1CC(N)C(O)C(C)O1 (stereo not given) + CN(C)c1ccc(Nc2c3ccc(NC(=O)CCN4CCCC4)cc3nc3cc(NC(=O)CCN4CCCC4)ccc23)cc1    7.12

**Q:** Bench note: what pIC50 did CC1COCCN1c1cc(C2(S(C)(=N)=O)CC2)nc(-c2ccnc3[nH]ccc23)n1 (stereo not given) + Cc1[nH]c2ccc(F)cc2c1-c1nc2c3cccnc3c3ncccc3c2[nH]1 show?
**A:** 6.83

**Q:** Bench note: what pIC50 did Cn1ncnc1[C@H]1c2n[nH]c(=O)c3cc(F)cc(c23)N[C@@H]1c1ccc(F)cc1 + Cc1[nH]c2ccc(F)cc2c1-c1nc2c3cccnc3c3ncccc3c2[nH]1 show?
**A:** 6.97

----------
Recorded measurements of viability, T/C, one per entry
- Test system: 885512-296-R-J2-PDC complex spheroid viability
- assay-summary: Anticancer human tumor 885512-296-R-J2-PDC cell line growth inhibition [GQUAD];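 also: spheroids exposed to the compounds for one week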;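 as to viability, T/C: percent of tumor spheroid viability relative to DMSO vehicle control wells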
- condition-summary: second compound 10 µM; first compound 10 µM; stronger effect = lower value
Respond numerically; units are % and should not be typed.

Observe how each entry below is paired with its result.
1. COc1cccc2c1C(=O)c1c(O)c3c(c(O)c1C2=O)CC(O)(C(=O)CO)CC3OC1CC(N)C(O)C(C)O1 (centres undefined) + CN(C)c1ccc(Nc2c3ccc(NC(=O)CCN4CCCC4)cc3nc3cc(NC(=O)CCN4CCCC4)ccc23)cc1    1.52
2. O=C(c1cc(Cc2n[nH]c(=O)c3ccccc23)ccc1F)N1CCN(C(=O)C2CC2)CC1 + Cc1[nH]c2ccc(F)cc2c1-c1nc2c3cccnc3c3ncccc3c2[nH]1    1.27
3. O=c1[nH]cc(F)c(=O)[nH]1 + Cc1[nH]c2ccc(F)cc2c1-c1nc2c3cccnc3c3ncccc3c2[nH]1    1.45

Let us move to another entry and its viability, T/C.
**Q:** Bench note: what viability, T/C did O=C(NO)c1cnc(N2CCN(S(=O)(=O)c3ccc4ccccc4c3)CC2)nc1 + CN(C)c1ccc(Nc2c3ccc(NC(=O)CCN4CCCC4)cc3nc3cc(NC(=O)CCN4CCCC4)ccc23)cc1 show?
**A:** 0.31

----------
- System: 885512-296-R-J2-PDC complex spheroid viability
- assay-summary: Anticancer human tumor 885512-296-R-J2-PDC cell line growth inhibition [GQUAD];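 also: spheroids exposed to the compounds for one week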;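 as to viability, T/C: percent of tumor spheroid viability relative to DMSO vehicle control wells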
- condition-summary: second compound 10 µM; first compound 1 µM; stronger effect = lower value
- Excerpt: DNA G-quadruplex Stabilizer Agents in Combinations in Complex Spheroids A high-throughput screen of multi-cell type tumor spheroids was designed to identify active combinations of DNA G-quadruplex stabilizer agents and targeted small molecules. […] Compounds. […] If the clinical Cmax for an agent had not been determined, the highest concentration tested was 10 microM. […]
Recorded measurements of viability, T/C, one per entry
Respond numerically; units are % and should not be typed.

Observe how each entry below is paired with its result.
1. O=C(NO)c1cnc(N2CCN(S(=O)(=O)c3ccc4ccccc4c3)CC2)nc1 + Cc1[nH]c2ccc(F)cc2c1-c1nc2c3cccnc3c3ncccc3c2[nH]1    1.46
2. Cc1cccc(N(C)C(=O)C2C(O)CCN2c2nc(C)cc(C(F)(F)F)c2C#N)c1 (stereo not drawn) + Cc1cnc(CNC(=O)c2c(=O)c3ccc(N4CCCN(C)CC4)nc3n3c2sc2ccccc23)cn1    0.25

Let us move to another entry and its viability, T/C.
**Q:** Bench note: what viability, T/C did C=CCn1c(=O)c2cnc(Nc3ccc(N4CCN(C)CC4)cc3)nc2n1-c1cccc(C(C)(C)O)n1 + Cc1[nH]c2ccc(F)cc2c1-c1nc2c3cccnc3c3ncccc3c2[nH]1 show?
**A:** 1.79

----------
- System: 885512-296-R-J2-PDC complex spheroid viability
- assay-summary: Anticancer human tumor 885512-296-R-J2-PDC cell line growth inhibition [GQUAD];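 also: spheroids exposed to the compounds for one week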;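 as to viability, T/C: percent of tumor spheroid viability relative to DMSO vehicle control wells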
- condition-summary: second compound 0.1 µM; first compound 0.316 µM; stronger effect = lower value
Recorded measurements of viability, T/C, one per entry
Respond numerically; units are % and should not be typed.

Observe how each entry below is paired with its result.
1) COc1cc(C2c3cc4c(cc3C(OC3OC5COC(C)OC5C(O)C3O)C3COC(=O)C23)OCO4)cc(OC)c1O (stereo not drawn) + CN(C)c1ccc(Nc2c3ccc(NC(=O)CCN4CCCC4)cc3nc3cc(NC(=O)CCN4CCCC4)ccc23)cc1    77.1
2) C=CC(=O)N1CCN(c2nc(=O)n(-c3c(C)ccnc3C(C)C)c3nc(-c4c(O)cccc4F)c(F)cc23)C(C)C1 (stereo not drawn) + Cc1[nH]c2ccc(F)cc2c1-c1nc2c3cccnc3c3ncccc3c2[nH]1    97.4

Let us move to another entry and its viability, T/C.
**Q:** Tell me reported viability, T/C for COc1cc(C2c3cc4c(cc3C(OC3OC5COC(C)OC5C(O)C3O)C3COC(=O)C23)OCO4)cc(OC)c1O (stereo not drawn) + Cc1[nH]c2ccc(F)cc2c1-c1nc2c3cccnc3c3ncccc3c2[nH]1 , tested with 885512-296-R-J2-PDC complex spheroid viability.
**A:** 94.2

----------
- System: 885512-296-R-J2-PDC complex spheroid viability
- assay-summary: Anticancer human tumor 885512-296-R-J2-PDC cell line growth inhibition [GQUAD];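 also: spheroids exposed to the compounds for one week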
- condition-summary: curve of first compound; second compound 1 µM
pIC50: −log10 of the molar value.
quantity-name: pIC50

Observe how each entry below is paired with its result.
1. O=c1[nH]cc(F)c(=O)[nH]1 + CN(C)c1ccc(Nc2c3ccc(NC(=O)CCN4CCCC4)cc3nc3cc(NC(=O)CCN4CCCC4)ccc23)cc1    < 5.00
2. COc1cccc2c1C(=O)c1c(O)c3c(c(O)c1C2=O)CC(O)(C(=O)CO)CC3OC1CC(N)C(O)C(C)O1 (stereo not drawn) + Cc1cnc(CNC(=O)c2c(=O)c3ccc(N4CCCN(C)CC4)nc3n3c2sc2ccccc23)cn1    > 7.50

**Q:** Bench note: what pIC50 did Cc1[nH]c2ccccc2c1CCNCc1ccc(/C=C/C(=O)NO)cc1 + Cc1[nH]c2ccc(F)cc2c1-c1nc2c3cccnc3c3ncccc3c2[nH]1 show?
**A:** < 6.50

**Q:** Bench note: what pIC50 did COc1ccc([C@@H](O)c2cc(-c3ncnc4cc(N5CCOCC5)ccc34)c(F)cc2Cl)nn1 + CN(C)c1ccc(Nc2c3ccc(NC(=O)CCN4CCCC4)cc3nc3cc(NC(=O)CCN4CCCC4)ccc23)cc1 show?
**A:** < 5.00

**Q:** Bench note: what pIC50 did CCc1c2c(nc3ccc(O)cc13)-c1cc3c(c(=O)n1C2)COC(=O)[C@]3(O)CC + CN(C)c1ccc(Nc2c3ccc(NC(=O)CCN4CCCC4)cc3nc3cc(NC(=O)CCN4CCCC4)ccc23)cc1 show?
**A:** > 9.00

**Q:** Bench note: what pIC50 did CC1COCCN1c1cc(-c2ccnn2C)c2ccnc(-c3ccn[nH]3)c2n1 (stereo not drawn) + Cc1cnc(CNC(=O)c2c(=O)c3ccc(N4CCCN(C)CC4)nc3n3c2sc2ccccc23)cn1 show?
**A:** > 7.50

**Q:** Bench note: what pIC50 did Nc1ccn(C2OC(CO)C(O)C2(F)F)c(=O)n1 (stereo not drawn) + CN(C)c1ccc(Nc2c3ccc(NC(=O)CCN4CCCC4)cc3nc3cc(NC(=O)CCN4CCCC4)ccc23)cc1 show?
**A:** > 7.50

**Q:** Bench note: what pIC50 did C=CC(=O)N1CCN(c2nc(=O)n(-c3c(C)ccnc3C(C)C)c3nc(-c4c(O)cccc4F)c(F)cc23)C(C)C1 (stereo not drawn) + CN(C)c1ccc(Nc2c3ccc(NC(=O)CCN4CCCC4)cc3nc3cc(NC(=O)CCN4CCCC4)ccc23)cc1 show?
**A:** < 5.00
